B1: library; numbered along this chain (parent)
chain: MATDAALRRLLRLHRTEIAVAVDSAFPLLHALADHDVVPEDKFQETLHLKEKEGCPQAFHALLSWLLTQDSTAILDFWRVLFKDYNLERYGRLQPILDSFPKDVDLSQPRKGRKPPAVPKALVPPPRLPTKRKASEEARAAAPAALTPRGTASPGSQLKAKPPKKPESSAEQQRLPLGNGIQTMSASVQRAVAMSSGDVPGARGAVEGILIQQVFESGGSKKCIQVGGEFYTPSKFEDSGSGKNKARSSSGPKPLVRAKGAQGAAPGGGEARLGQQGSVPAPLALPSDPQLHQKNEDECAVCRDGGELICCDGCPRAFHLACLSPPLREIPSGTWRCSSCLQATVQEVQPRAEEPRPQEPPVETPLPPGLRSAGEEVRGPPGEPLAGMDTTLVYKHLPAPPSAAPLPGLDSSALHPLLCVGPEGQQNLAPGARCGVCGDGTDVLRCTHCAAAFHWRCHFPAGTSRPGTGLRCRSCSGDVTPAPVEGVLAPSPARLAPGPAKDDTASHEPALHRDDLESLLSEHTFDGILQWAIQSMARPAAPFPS

Variants of: B1
test-method-notes: AIRE transcriptional activation functional score (insulin promoter-GFP; nonsense median 0, synonymous median 1) (normalised score); higher = higher AIRE activity (more reporter activation)
condition-set: with insulin promoter-GFP reporter in HEK293
We begin with a simple list: items and their reported AIRE transcriptional activation functional score.
Write no unit; give the number alone.

mutant-designation: R272P
reported-measurement: 0.879
--
mutant-designation: K83R
reported-measurement: 0.00955
--
mutant-designation: S234F
reported-measurement: 1.31
--
mutant-designation: K159E
reported-measurement: 0.955

Please examine the following record next.
Data point: R203I ; AIRE transcriptional activation functional score = 1.2
